Hello, the source for this data is PubChem BioAssay (NCI), in case you need it.

- Protocol Summary: NCI Yeast Anticancer Drug Screen. Data for the mlh1 rad18 strain (AID 175)
- Protocol Conditions: S. cerevisiae mlh1 rad18 strain growth inhibition; at 5.0 µM (retest, dose inferred, filed as 0.5); stronger effect = higher value
This is part of a sample that, as a whole, favours compounds with a hit. Of some 79,000 tested, about 15% had one in any assay. Where a SMILES comes first, the peptide text is derived from it. [ ]: non-standard residue; d: D form. ξ: configuration not given here. ξV = CC(C)C(N)C(=O)O
Endpoint Name: growth inhibition (%)
The answer is to be given in %; state only the numeric part.

Entry CCCCCCCCCCCCCCCCCCOCC(O)CO (centres undefined) : reported growth inhibition = ?
-3

Given the entry Cc1ccc(S(=O)(=O)C23C(N=NC2(C)C)C3(C)C)cc1 (centres undefined) , report its measured growth inhibition.
-1

What does the record list as growth inhibition for COc1cccc(NC(=S)N2CCCCC2)c1 ?
-132

GET /values?readout=growth inhibition&item= CCCCCCN(CCCCCC)C(=O)C1=C(C)NC(C)=C(C(=O)N(CCCCCC)CCCCCC)C1
-1

Which growth inhibition value is on record for CCCCCC[C@H](C/C=C\CCCCCCCC(=O)OC)OC(C)=O ?
-3

// lookup growth inhibition for CC1(O)Cc2c(O)c3c(c(O)c2CC1O)C(=O)C=CC3=O (centres undefined)
9

Which growth inhibition value belongs to CCCCCCCCCCCCCCCC(=O)NCC[N+](C)(C)C ?
36

growth inhibition for CC(C)C(NC(=O)CN)C(=O)O (centres undefined) (H-Gly-[ξV]-OH) ?
-146

Would you mind telling me what growth inhibition value was observed for CCC(=O)OCOc1ccc(/C=C2\CCC(CN(C)C)C2=O)cc1 (centres undefined) ?
33

Which value of growth inhibition has been reported for CCCCCCCc1c(Cl)nc(Cl)nc1Cl in the records?
16

# growth inhibition lookup, item CN1CCCc2cc(/C=C\c3ccnc4ccccc34)ccc21
-21

So what's the measured growth inhibition for this one? O=C1C(=Cc2c[nH]c3ccccc23)C(=O)c2ccccc21
-1

Given the entry CCCn1cnc2c(SCc3ccc(Cl)cc3)nc(N)nc21 , report its measured growth inhibition.
-6

// query growth inhibition value for entry C=CCNC(=O)c1ccccc1SC(C)=O
18

Record request: growth inhibition value, item O=C1CCC(c2ccccc2)(C2(c3ccccc3)CCC(=O)O2)O1 (centres undefined)
4

// returns reported growth inhibition for input O=C1NS(=O)(=O)c2ccccc21
-6

So what's the measured growth inhibition for this one? Cc1c(-c2ccccc2)ccnc1/C=N/NC(N)=S
18

Suppose we examine the compound Cc1nc2c(Br)cc(Br)cc2c(=O)n1-c1ccccc1NC1OC(CO)C(O)C(O)C1O (centres undefined) ; what growth inhibition value has been reported?
-25

Which growth inhibition is listed for Nc1ccccc1Oc1ccc(Cl)cc1Cl ?
15

Which growth inhibition is listed for CN1C(c2ccccc2)CC(=NOCc2ccccc2)CC1c1ccccc1 (centres undefined) ?
94

growth inhibition for O=[N+]([O-])C(/C=C(\Cl)[N+](=O)[O-])=C(Nc1ccccc1)Nc1ccccc1 ?
27

// growth inhibition lookup, key: O=C(NC(C(=O)O)c1ccccc1)OCc1ccccc1 (centres undefined)
3

Can you look up the measured growth inhibition of O=C1C=CC(=O)N1c1ccc(N=Nc2ccccc2)cc1 for me?
98

I have this compound here, CC(=O)OCC(=O)[C@H]1CC[C@H]2[C@@H]3CC=C4C[C@@H](O)CC[C@]4(C)[C@H]3CC[C@]12C , and I need its recorded growth inhibition.
65

Would you mind telling me what growth inhibition value was observed for CSc1ncnc2c1ncn2C1OC(CO)C(O)C1O (centres undefined) ?
14

If you can, please state the reported growth inhibition value of OCC1OC(Sc2ncc[nH]2)C(O)C(O)C1O (centres undefined) .
-18

Dear colleague, I am looking for the recorded growth inhibition of the following compound: CC(=O)OC1CCC2(C)C(CCC3C4CCC(OC(C)=O)C4(C)CCC32)O1 (centres undefined)
6

For the compound Clc1cc(Cl)c(Cl)nn1 , what growth inhibition is on record?
1

Quick one: growth inhibition of C=CCCC(=O)O ?
0

// growth inhibition lookup, key: O=C(O)C#CC(=O)O
35

Please give the measured growth inhibition for this compound: NC(=O)c1cc(Br)cc(Br)c1O
-10

Form field: reported growth inhibition of CCN(C(=O)C(Cl)Cl)C(Cc1ccccc1)c1ccccc1 (centres undefined)
2

Given CC(C)=CCC(O)C1=CC(=O)c2c(O)ccc(O)c2C1=O (centres undefined) , state its recorded growth inhibition.
43

Data request, read-out growth inhibition, for O=C(CCC(=O)OCCOc1ccccc1)OCCOc1ccccc1
6

# growth inhibition lookup, item CCN(CC)CCOc1ccc2c(C)c(-c3ccccc3)c(=O)oc2c1
2

Requested field: growth inhibition. Item: CCN(CC)Cc1cc2c(cc1O)CC[C@@H]1[C@@H]2CC[C@]2(C)C(=O)CC[C@@H]12
38

Can you share its growth inhibition? I mean this compound: CCN1CCC(O)(/C=C/c2ccc(C)cc2)C(C(=O)/C=C/c2ccc(C)cc2)C1 (centres undefined)
24

Tell me the measured growth inhibition of CC(C)(Cc1nocc1C(C)(C)CC#N)c1cc(CC(C)(C)C2(C)OCCO2)no1 , please.
-3

What growth inhibition value was documented for this compound, CCC(C)[P+](c1ccccc1)(c1ccccc1)c1ccccc1 (centres undefined) ?
21

###

- Protocol Summary: NCI Yeast Anticancer Drug Screen. Data for the cln2 rad14 strain (AID 165);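 note: 0% = growth equal to vehicle treated cultures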
- Protocol Conditions: S. cerevisiae cln2 rad14 strain, at 50.0 µM, stronger effect = higher value
About 79,000 compounds went through this panel and 15% of them were active in at least one assay; those are over-represented in the sample as a whole.
Would you mind labelling by growth inhibition? At or over 90% is label 1, under is label 0.

Is growth inhibition at least 90%? Consider S=c1nc[nH]c2[nH]ccc12
label 0

Answer whether growth inhibition of NC(=O)c1cc(Br)cc(Br)c1O is greater than or equal to 90%.
label 1

Please indicate if the recorded growth inhibition for COc1ccc(CC(=O)c2ccc(O)cc2O)cc1 meets or exceeds 90%.
label 0

Reported growth inhibition at or above 90%? COc1ccccc1NC(=O)C(/C=N/C(=S)NCCNc1ccc(OC)c(OC)c1)=C(\C)O
label 0

###

Can you tell me growth inhibition for the items I'm about to list?
- Protocol Summary: NCI Yeast Anticancer Drug Screen. Data for the cln2 rad14 strain (AID 165);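 note: 0% = growth equal to vehicle treated cultures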
- Protocol Conditions: S. cerevisiae cln2 rad14 strain, at 50.0 µM (retest, dose inferred, filed as 5.0), stronger effect = higher value
The panel holds about 79,000 compounds, 15% with a hit somewhere; the sample as a whole holds those more often.
Give your result in % as a bare value.

I have this molecule here, CN(C)CCC(=O)c1cccc([N+](=O)[O-])c1 , and I need its recorded growth inhibition.
71

Look up growth inhibition for this molecule: Nc1cc2c(cc1[N+](=O)[O-])[nH]c1c(-c3ccccc3)nccc12
89

Please give the measured growth inhibition for this molecule: [N-]=[N+]=NC(=O)Nc1cccc(C(F)(F)F)c1
99

Given the entry O=C(NC(C(=O)O)c1ccccc1)OCc1ccccc1 (stereo unspecified) , report its measured growth inhibition.
-2

GET /values?readout=growth inhibition&item= CCO/C=C1\SC(=S)N(c2cccc(O)c2)C1=O
72

Param item = CCCCCCCCCCCCCCCCCCOCC(COP(=O)([O-])OCC[N+](C)(C)C)OC (stereo unspecified) ; retrieve measured growth inhibition.
-46

Entry CC1(C)OC2C(O)C(O)C3OC(C)(C)OC3C2O1 (stereo unspecified) has what growth inhibition?
0

For O=C(O)/C(=C(/c1ccccc1)c1ccc(Cl)cc1)c1ccccc1 , what is its reported growth inhibition?
99

Field request: growth inhibition | item: C[N+]1(C)CCC(c2ccccc2)(c2ccccc2)C(=O)C1
-11

Report growth inhibition for C=CCCC(=O)O please.
4

Looking for the measured growth inhibition of CCOc1ccc(NC(=O)C(=O)NO)cc1 , can you help?
26

I am curious: what growth inhibition value has been reported for Cc1nc2c(ccc3[nH]c4ccccc4c32)s1 ?
99

# input molecule: O=C1C(CN(Cc2ccccc2)Cc2ccccc2)CCCC1CN(Cc1ccccc1)Cc1ccccc1 (stereo unspecified) ; wanted: its growth inhibition
7

Please report the recorded growth inhibition for O=C(O)C#CC(=O)O .
30

Given the entry Nc1ncnc(N)c1N=O , report its measured growth inhibition.
28

Look at this molecule and give its reported growth inhibition. COc1ccc(C2SC(N)=Nc3c2c(C)nn3C(=O)c2ccc(Cl)cc2)cc1OC (stereo unspecified)
1

// returns reported growth inhibition for input ClCCCN(CCCCl)c1ccc(C=Nc2cccc(Cl)c2)cc1
88

For C=C[C@]1(C)C=C2C(O)CC3C(C)(C)CCC[C@]3(CO)C2CC1 (stereo partly specified) , what is its reported growth inhibition?
99

Given CCCCCCCCCCCCCCCCCC(=O)NCCO , state its recorded growth inhibition.
-8

Name the recorded growth inhibition for CCCCCCN(CCCCCC)C(=O)C1=C(C)NC(C)=C(C(=O)N(CCCCCC)CCCCCC)C1 .
14

Consider the molecule shown here: Nc1ccc2cc3ccc(N)cc3nc2c1 What is its recorded growth inhibition?
11
